- assay system: T1, human IL-22 (human, UniProt Q9GZX6 34-179)
- T1 construct: also called hIL-22; hIL22
- T1 sequence (looked up): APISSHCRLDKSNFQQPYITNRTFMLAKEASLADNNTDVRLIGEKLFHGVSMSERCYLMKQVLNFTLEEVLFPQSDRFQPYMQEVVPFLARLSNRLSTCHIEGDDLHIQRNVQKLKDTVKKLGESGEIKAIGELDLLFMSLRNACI
- assay comment: SPR (SierraSensors SPR-2), hIL-22 immobilized on chip, antibody injected, Langmuir 1:1 model
Give measured Kd for each item. Keep answers brief.

Record request: Kd value, item CPS-04 (antibody, V domains shown, Mutant of humanized hum10, whole antibody expressed in CHO cells; also called LC-07 / HC-09) VH: QVQLVQSGAEVKKPGASVKVSCKASGYIFRSYWIHWIRQPPGKGLEWIGRIYPGTGNTYYNRKFKGRVTISADKSISTAYLQWSSLKASDTAMYYCARSYDSSVAYWGQGTLVTVSS VL: AIQLTQSPSSLSASVGDRVTITCSASSSVSYMHWYLQKPGQSPQLLIYKTSKLLSGVPSRFSGSGSGTDFTFTISSLEAEDAATYYCQQWSSNPYITFGQGTKVEIKR 29.2 pM

Record request: Kd value, item CPS-17 (antibody, V domains shown, Mutant of humanized hum10, whole antibody expressed in CHO cells; also called LC-04 / HC-49) VH: QVQLVQSGAEVKKPGASVKVSCKASGYIFRSYWIHWIRQPPGKGLEWIGRIYPGTGNTYYNRKFKGRVTISADKSISTAYLQWSSLKASDTAMYYCARSYMYSVAYWGQGTLVTVSS VL: AIQLTQSPSSLSASVGDRVTITCSASSSVSYMHWYLQKPGQSPQLLIYETRKLASGVPSRFSGSGSGTDFTFTISSLEAEDAATYYCQQWSSNPYITFGQGTKVEIKR 52.2 pM

Record request: Kd value, item CPE-LC-E049K (antibody, V domains shown, One of the mutant antibodies of the CPE library made from hum10 (CDR positions substituted); built here as hum10 with E49K in the light chain, read from its name) VH: QVQLVQSGAEVKKPGASVKVSCKASGYIFTSYWIHWIRQPPGKGLEWIGRIYPGTGNTYYNEKFKGRVTISADKSISTAYLQWSSLKASDTAMYYCARSYDSSCAYWGQGTLVTVSS VL: AIQLTQSPSSLSASVGDRVTITCSASSSVSYMHWYLQKPGQSPQLLIYKTSKLASGVPSRFSGSGSGTDFTFTISSLEAEDAATYYCQQWSSNPYITFGQGTKVEIKR 156 pM

These entries and their values trace back to patent US20210230263A1.
